Entries and their growth
System: HL-60(TB) leukemia
Protocol Text: NCI-60 one-dose screen, 48 h (100 = growth as untreated, 0 = no growth, -100 = all killed)
Condition Label: 10 µM unless noted
About 83,000 compounds went through this panel and 20% of them were active in at least one assay; those are over-represented in the sample as a whole.
Only the number, expressed in %, is required.

CCOC(=O)CNC(=O)CN(Cc1ccccc1)C(=O)[C@@]1(C)CCC[C@]2(C)[C@H]3C[C@H]4C(C(C)C)=C[C@]3(CC[C@H]21)[C@@H]1C(=O)OC(=O)[C@@H]14: 9.46
COc1ccc(CCN2C(=O)/C(=C/c3csc(C#N)n3)SC2=S)cc1: -23.8
N#Cc1c(-c2ccc(Cl)cc2)nc2n[nH]c(-c3ccc(Cl)cc3)c2c1-c1cccs1: 23.7

growth recorded for this molecule, NS(=O)(=O)c1ccc(-n2cc(-c3cccc(NC(=O)c4cc(C(F)(F)F)cc(C(F)(F)F)c4)c3)nn2)cc1 , is 63.4

// COc1ccc(C(=O)c2c(N)c(C#N)cn2-c2ccc([N+](=O)[O-])cc2)cc1 : growth value = 97.5

Lab book: growth of CN1CCc2c(sc3ncnc(N/N=C/c4cn(-c5ccccc5)nc4-c4ccc(Cl)cc4)c23)C1 noted as -12.4

For record O=C1Nc2ccccc2/C1=C/C(=O)c1cc2ccccc2oc1=O the listed growth is 102

Sure, the documented growth for CCOC(=O)c1ccc(NC(=O)CSC(CC(=O)c2sc(Nc3ccccn3)nc2C)c2ccccc2F)cc1 (centres undefined) is 2.8

Kindly note the recorded growth for O=c1[nH]c(=O)c2c(-c3cc4ccccc4oc3=O)ccnc2[nH]1 , which is 106

Entry under test: O=c1[nH]c2ccc(Cl)cc2cc1CSc1ccc(Nc2nccc(-c3ccc(Cl)cc3)n2)cc1 . Its growth was 52.4

Query O=c1[nH]c2ccccc2cc1COc1ccc(Nc2nccc(-c3ccc(Cl)cc3)n2)cc1 yields growth of 95

Just so you know, measured growth for O=C(Nc1nc2ccccc2s1)c1ccc(Br)cc1 came out at 99.1

Recorded growth (molecule CS(=O)(=O)Nc1cncc(-c2ccc3ncnc(NCc4ccccc4)c3c2)c1 ): 54.6

Lab note: O=C(N=Nc1c(O)[nH]c2ccc(Br)cc12)c1ccc2nc(-c3ccc(Cl)cc3)[nH]c2c1 gave growth of 20.9

Recorded growth (molecule COc1cc(C2CC(c3ccc(S(=O)(=O)NCCNc4nc(Nc5ccc(F)cc5)nc(N(C)C)n4)cc3)=Nc3c(N)nc(N)nc3N2)cc(OC)c1OC (centres undefined) ): 80.3

Lab note: measured growth of COC(=O)c1cc(C(=O)C(C)(C)C)n2c3ccccc3c3ccccc3c12 was 90.4

growth measured on COc1ccc(-c2c(Nn3cnnn3)no[n+]2[O-])cc1 = 38.8

growth reported for this molecule O=C1NC(=NC2CCCCCC2)N/C1=C\c1ccc2ncoc2c1 : 30.1

growth for CN1C(=O)/C(=C/c2ccc3ncsc3c2)NC1=NC12CC3CC(CC(O)(C3)C1)C2 is -16.6

====

Tested on: HL-60(TB) leukemia
Protocol Text: NCI-60 one-dose screen, 48 h (100 = growth as untreated, 0 = no growth, -100 = all killed)
Condition Label: 10 µM unless noted
Compounds without any hit were thinned out: in the full panel of roughly 83,000, 20% have a hit. Active and inactive are the calls of the source. How the source made its calls: active means growth percent below 10; inactive means the rest.
Metric Name: growth

growth in this record for N#Cc1cc(-c2ccc3ncnc(N4CCc5cc(F)c(Cl)cc54)c3c2)cnc1N : 36.1% (inactive)
